B1: library; numbered along this chain (parent)
chain: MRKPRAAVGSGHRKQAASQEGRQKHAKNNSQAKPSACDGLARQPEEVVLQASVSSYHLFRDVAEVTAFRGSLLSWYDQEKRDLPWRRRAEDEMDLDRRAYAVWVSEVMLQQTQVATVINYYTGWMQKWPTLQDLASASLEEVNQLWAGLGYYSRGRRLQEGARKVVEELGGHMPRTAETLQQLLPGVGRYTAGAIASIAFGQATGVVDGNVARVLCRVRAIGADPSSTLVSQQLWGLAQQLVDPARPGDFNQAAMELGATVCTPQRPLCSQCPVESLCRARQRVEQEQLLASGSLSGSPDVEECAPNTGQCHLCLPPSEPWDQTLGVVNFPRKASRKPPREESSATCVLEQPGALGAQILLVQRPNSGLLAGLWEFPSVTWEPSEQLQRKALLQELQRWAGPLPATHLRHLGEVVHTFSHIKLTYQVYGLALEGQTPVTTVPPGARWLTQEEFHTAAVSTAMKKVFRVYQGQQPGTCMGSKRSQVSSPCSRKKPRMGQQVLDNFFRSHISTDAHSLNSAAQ

Variants of: B1
EXPERIMENT DESCRIPTION: 8OG:A repair function score (normalized; synonymous = 0, nonsense = -1) (normalized log-likelihood score); higher = more repair activity (WT-like);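 note: cells sorted at 72 h after reporter transfection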
TEST PARAMETERS: with 8OG:A DNA repair reporter (GFP) in HEK-293 MUTYH KO cells
# 8OG:A repair function score annotations
Form field (numeric): enter value without unit.

The examples below pair each entry with its known result.
* A194Q | -0.577
* A199T | -0.214
* A115N | 0.178

// below: 8OG:A repair function score requested for another variant
Bench note: what 8OG:A repair function score did L408Y show?
-0.205
